Consider the following sequences; for each one, report its protein stability index.
# Test system: Saccharomyces cerevisiae
# EXPERIMENTAL_DETAILS: protein stability index of tFT-peptide fusion (C-terminal peptide) (PSI (0-1 scale)); higher = more stable (slower turnover)
# COND: genetic background: wild type; temperature: 30 C
Number only, please.

Prompt: protein stability index of YYGCGAFGFSVR on Saccharomyces cerevisiae?
Completion: 0.695

Prompt: Record GQVGDRVVSVGL : what is its protein stability index with Saccharomyces cerevisiae?
Completion: 0.694

Prompt: Lab note: need protein stability index for PCLASHTVDSLP on Saccharomyces cerevisiae, anyone have it?
Completion: 0.665

Prompt: Checklist item: protein stability index tested on Saccharomyces cerevisiae, entry PPSHGYPPRLIP , value?
Completion: 0.678

Prompt: Form: Entry = RGRGEVRGVGGG | System = Saccharomyces cerevisiae | protein stability index = ____
Completion: 0.698

Prompt: Which measured protein stability index belongs to VFFLLSVYMVMM , tested on Saccharomyces cerevisiae?
Completion: 0.307

* * *

I'd appreciate it if you could supply protein stability index values for the items below.
# System: Saccharomyces cerevisiae
# EXPERIMENTAL_DETAILS: protein stability index of tFT-peptide fusion in deletion strain of DAS1 (PSI (0-1 scale)); higher = more stable (slower turnover)

Prompt: Would you mind telling me what protein stability index value was observed for VRGAVGGWRFVG ?
Completion: 0.674

Prompt: Entry ARWRVGLWVGAS : reported protein stability index = ?
Completion: 0.545

Prompt: Can you share its protein stability index? I mean this sequence: VRGAVGGWRLTG
Completion: 0.659

Prompt: Item under review: KTSCGYKFRTNN . Reported protein stability index?
Completion: 0.679

Prompt: Which protein stability index value is on record for FLIQPLPVQFLN ?
Completion: 0.582

* * *

# Tested on: Saccharomyces cerevisiae
# EXPERIMENTAL_DETAILS: protein stability index of tFT-peptide fusion (C-terminal peptide) (PSI (0-1 scale)); higher = more stable (slower turnover)
# COND: genetic background: das1 deletion; temperature: 30 C
MEASURED_QUANTITY: protein stability index

Prompt: What measured protein stability index is associated with RMLMGTTKRGRF [YAL037W C-terminal 12 aa] on Saccharomyces cerevisiae?
Completion: 0.704

Prompt: Form field - read-out: protein stability index; system: Saccharomyces cerevisiae; submitted item: VPQLHSFIAKEQ [RMD9 C-terminal 12 aa]
Completion: 0.699

Prompt: Could you share what protein stability index was measured for LLASCIETTRNK [LOT6 C-terminal 12 aa] , tested on Saccharomyces cerevisiae?
Completion: 0.691

Prompt: So what protein stability index did SIVYSWKENSSS [YGL217C C-terminal 12 aa] get with Saccharomyces cerevisiae?
Completion: 0.704

Prompt: Find protein stability index (Saccharomyces cerevisiae) for the entry DILKILSSSFHN [SPC29 C-terminal 12 aa]
Completion: 0.709

Prompt: Can you look up protein stability index on Saccharomyces cerevisiae for NGTMKRGGVKNK [HPC2 C-terminal 12 aa] ?
Completion: 0.697

Prompt: For the record EVEKIVKKVLKD [DBP5 C-terminal 12 aa] , what value of protein stability index is listed for Saccharomyces cerevisiae?
Completion: 0.723

Prompt: Item NLEATNNKKPPL [DAD4 C-terminal 12 aa] with Saccharomyces cerevisiae - protein stability index?
Completion: 0.696

Prompt: Provide value of protein stability index for this record tested with Saccharomyces cerevisiae: EIKPYLRFTKSK [PRX1 C-terminal 12 aa]
Completion: 0.692

Prompt: Give the reported protein stability index for LITMIRFVNSQK [DCG1 C-terminal 12 aa] (system: Saccharomyces cerevisiae).
Completion: 0.677

Prompt: State its protein stability index on Saccharomyces cerevisiae: GAGIMALIGKWA [ZRT1 C-terminal 12 aa]
Completion: 0.687

Prompt: Look up protein stability index with Saccharomyces cerevisiae for this sequence: EPYNIKYSNSKK [MSD1 C-terminal 12 aa]
Completion: 0.7

Prompt: Value wanted: protein stability index (Saccharomyces cerevisiae) of entry NDDNFDDAQEQQ [SEC2 C-terminal 12 aa]
Completion: 0.698

Prompt: Hello, I am looking for reported protein stability index with Saccharomyces cerevisiae for ANFECSSWKFAS [EFM5 C-terminal 12 aa] . Could you help?
Completion: 0.717

Prompt: I'm curious: which protein stability index was measured for SAEGSDVLYMQK [LSM7 C-terminal 12 aa] tested on Saccharomyces cerevisiae?
Completion: 0.671

Prompt: What value of protein stability index on Saccharomyces cerevisiae does NTTRYNASLVNQ [DIA3 C-terminal 12 aa] have?
Completion: 0.741

Prompt: Query for Saccharomyces cerevisiae: what protein stability index does the record show for VVERTRQAHFAI [YEF1 C-terminal 12 aa] ?
Completion: 0.676

Prompt: Param readout = protein stability index; param system = Saccharomyces cerevisiae; param query = SISHPENKVLHK [YNL195C C-terminal 12 aa] ; response: value
Completion: 0.689

Prompt: Tell me reported protein stability index for ASNGVRLSEIGW [SNZ1 C-terminal 12 aa] , tested with Saccharomyces cerevisiae.
Completion: 0.699

* * *

Hi there, I'd appreciate the recorded protein stability index for every entry that follows.
# Test system: Saccharomyces cerevisiae
# EXPERIMENTAL_DETAILS: protein stability index of tFT-peptide fusion (C-terminal peptide) (PSI (0-1 scale)); higher = more stable (slower turnover)
# COND: genetic background: wild type; temperature: 30 C
Please give only the number in your answer, with no unit.

Prompt: Quick one: protein stability index for FPIWYPSSSFPR ?
Completion: 0.711

Prompt: Which protein stability index is listed for YWLCITECHIRK ?
Completion: 0.541

Prompt: Entry under review: TTPPPPPRHPAP . Reported protein stability index?
Completion: 0.696

Prompt: Entry AARGILLASRRD has what protein stability index?
Completion: 0.739

Prompt: Any idea what its protein stability index is? The sequence is GQKRKGTRSKVP
Completion: 0.696

Prompt: Query: protein stability index; subject: KRDVRRLYRKRV
Completion: 0.705

Prompt: What value of protein stability index has been recorded for this entry: LTSRPIPFLLRG
Completion: 0.666

Prompt: Entry under review: NTRGRGQCCQGN . Reported protein stability index?
Completion: 0.576

Prompt: Which protein stability index is reported for this sequence? FICGFRYHTVYR
Completion: 0.652

Prompt: Item LRGLVGEYRRLK has what recorded protein stability index?
Completion: 0.656

Prompt: What value of protein stability index has been recorded for this entry: PPTFPHLPHSWP
Completion: 0.792

Prompt: So what does the record say about protein stability index for RDPSVVGLGRPP ?
Completion: 0.604

Prompt: protein stability index for RLRTVQNLQIVV ?
Completion: 0.658

Prompt: Dear colleague, I am looking for the recorded protein stability index of the following sequence: GLGGPYNSHMFT
Completion: 0.991

Prompt: Quick check: protein stability index of LFCVAPLGSVSY ?
Completion: 0.652

Prompt: Would you mind telling me what protein stability index value was observed for FRGGCDRIRYRM ?
Completion: 0.696

Prompt: Can you share its protein stability index? I mean this sequence: KKIRKGIGNKHI
Completion: 0.651

Prompt: Would you kindly share the measured protein stability index for PPHPPRPPSPHP ?
Completion: 0.707

Prompt: Value lookup for protein stability index; key = HPLVASRLSPFP
Completion: 0.761

Prompt: GET /values?readout=protein stability index&item= GRWVLALCLVCG
Completion: 0.289

Prompt: Which protein stability index is reported for this sequence? HPPSPPPPAPSC
Completion: 0.738

Prompt: Recorded protein stability index of RPLLPPTFATSF , please.
Completion: 0.751

Prompt: Query (sequence): FIRLTFLRLSCI ; field requested: protein stability index
Completion: 0.255

Prompt: Consider the sequence shown here: LHEHHSFCFRLL What is its recorded protein stability index?
Completion: 0.658

Prompt: Requested read-out: protein stability index. Entry: VWGAGGGVWGLG
Completion: 0.793

Prompt: Look up protein stability index for this sequence: VVGKKQTGEKEK
Completion: 0.725

Prompt: Would you mind telling me what protein stability index value was observed for VIDHALWCYVGG ?
Completion: 0.605

Prompt: Recorded protein stability index of TSAASPVRYGGS , please.
Completion: 0.65

Prompt: Requested field: protein stability index. Item: LFPYPPASALLR
Completion: 0.662

Prompt: Can you look up the measured protein stability index of FFPITAWSGWDG for me?
Completion: 0.669

Prompt: Look up protein stability index for this sequence: GPSWYGKNSLHK
Completion: 0.686

Prompt: // protein stability index lookup, key: GGIQPEQYLNTL
Completion: 0.688

Prompt: Which protein stability index is reported for this sequence? RVAWFSSNCFAV
Completion: 0.571

Prompt: For CGVRQVGEIAVA , what is its reported protein stability index?
Completion: 0.526

Prompt: Given the sequence RIAAVRVEGRDD , what is its reported protein stability index?
Completion: 0.708

Prompt: Which protein stability index is reported for this sequence? PRVCSLLPSGSF
Completion: 0.711

Prompt: # get_value(readout='protein stability index', item= TRLSTPGYLILS )
Completion: 0.724

Prompt: Which protein stability index value is on record for SRSRPSRTLPLD ?
Completion: 0.695

Prompt: Fill blank: measured protein stability index of the sequence HDRLRGVFWRVP is ____.
Completion: 0.439

Prompt: Record request: protein stability index value, item EFFVLVHLVDPK
Completion: 0.638

Prompt: Item under review: QPPAKSRETKYR . Reported protein stability index?
Completion: 0.741

Prompt: # query: protein stability index of entry YSREVVGKQLFM
Completion: 0.693

Prompt: Fill blank: measured protein stability index of the sequence TPSLLPSPPFPL is ____.
Completion: 0.733

Prompt: # input sequence: VRGRGRSWRRVK ; wanted: its protein stability index
Completion: 0.758

Prompt: Param item = KKNKKNQKKKNK ; retrieve measured protein stability index.
Completion: 0.663

Prompt: Return reported protein stability index; argument: FPTIGLSCSFPH
Completion: 0.676

Prompt: Requested read-out: protein stability index. Entry: SSFPGPPLPPDP
Completion: 0.59

Prompt: What does the record list as protein stability index for YHLISSVRLPSS ?
Completion: 0.731

Prompt: Consider the sequence shown here: QCNTFNKEKPER What is its recorded protein stability index?
Completion: 0.694

Prompt: Param item = PPSLPPSPPLPP ; retrieve measured protein stability index.
Completion: 0.694

Prompt: For the sequence shown here, GPVTDWPLLLFK , give the reported protein stability index.
Completion: 0.59

Prompt: Quick check: protein stability index of RVVITYLVLSNR ?
Completion: 0.547

Prompt: Which protein stability index value is on record for LSLFLPFRFFRS ?
Completion: 0.699

Prompt: Would you kindly share the measured protein stability index for VGGEGSAGLQCR ?
Completion: 0.696

Prompt: For the sequence shown here, RHENKKDKIRME , give the reported protein stability index.
Completion: 0.701

Prompt: Can you look up the measured protein stability index of VGLLLAGKIVTY for me?
Completion: 0.604

Prompt: Recorded protein stability index for GGVGSCLVLSAR , please?
Completion: 0.668

Prompt: Fill in the blank: the reported protein stability index of SKKARIYIKKRR is ____.
Completion: 0.683

Prompt: Reported protein stability index, sequence RFFGAVSFQFCL : ____
Completion: 0.699
